test: in vivo; parameters: species or system mice; settings: male, NOD.Cg-Rag1tm1Mom Il2rgtm1Wjl/SzJ (NRG), mouse, iv, total radioactivity, Ratio Tumor-to-Pancreas
Where a SMILES comes first, the peptide text is derived from it. Bridges are numbered along the chain shown (N, C = ends). [ ]: non-standard residue; d: D form. The star is where a group is joined. X4 = O=C(O)CN1CCN(CC(=O)O)CCN(CC(=O)N[C@@H](CS(=O)(=O)O)C(=O)NCCCC[C@H](NC(=O)CNC(=O)CCCc2ccc(Cl)cc2)C(=O)*)CCN(CC(=O)O)CC1; X3 = O=C(O)CN1CCN(CC(=O)O)CCN(CC(=O)N[C@@H](CS(=O)(=O)O)C(=O)N[C@@H](CCCCNC(=O)CCCc2ccc(Br)cc2)C(=O)*)CCN(CC(=O)O)CC1; X5 = O=C(O)CN1CCN(CC(=O)O)CCN(CC(=O)N[C@@H](CS(=O)(=O)O)C(=O)N[C@@H](CCCCNC(=O)CCCc2ccc(Cl)cc2)C(=O)*)CCN(CC(=O)O)CC1; 2Nal = N[C@@H](Cc1ccc2ccccc2c1)C(=O)O; Lys(iPr) = CC(C)NCCCC[C@H](N)C(=O)O

Compound	tissue to tissue ratio at 3 h
CC(C)NCCCC[C@H](NC(=O)[C@H]1CCC(=O)N[C@@H](CCCCNC(=O)[C@H](CCCCNC(=O)[C@H](CS(=O)(=O)O)NC(=O)CN2CCN(CC(=O)O)CCN(CC(=O)O)CCN(CC(=O)O)CC2)NC(=O)CNC(=O)CCCc2ccc(Cl)cc2)C(=O)N[C@@H](Cc2ccc(O)cc2)C(=O)N[C@@H](CCCCNC(C)C)C(=O)N[C@H](CCCNC(=N)N)C(=O)N[C@@H](Cc2ccc3ccccc3c2)C(=O)N[C@H](C)C(=O)N1)C(N)=O [[68Ga]Ga-BL34T1, metal not drawn] (K(X4)Y[Lys(iPr)][dR][2Nal][dA][dE][Lys(iPr)]-NH2; lactam N-7)	26
CC(C)NCCCC[C@H](NC(=O)[C@H]1CCC(=O)N[C@@H](CCCCNC(=O)[C@H](CCCCNC(=O)CCCc2ccc(Br)cc2)NC(=O)[C@H](CS(=O)(=O)O)NC(=O)CN2CCN(CC(=O)O)CCN(CC(=O)O)CCN(CC(=O)O)CC2)C(=O)N[C@@H](Cc2ccc(O)cc2)C(=O)N[C@@H](CCCCNC(C)C)C(=O)N[C@H](CCCNC(=N)N)C(=O)N[C@@H](Cc2ccc3ccccc3c2)C(=O)N[C@H](C)C(=O)N1)C(N)=O [[^177Lu]Lu-BL34L20, metal not drawn] (K(X3)Y[Lys(iPr)][dR][2Nal][dA][dE][Lys(iPr)]-NH2; lactam N-7)	12.6
CC(C)NCCCC[C@H](NC(=O)[C@H]1CCC(=O)N[C@@H](CCCCNC(=O)[C@H](CCCCNC(=O)CCCc2ccc(Cl)cc2)NC(=O)[C@H](CS(=O)(=O)O)NC(=O)CN2CCN(CC(=O)O)CCN(CC(=O)O)CCN(CC(=O)O)CC2)C(=O)N[C@@H](Cc2ccc(O)cc2)C(=O)N[C@@H](CCCCNC(C)C)C(=O)N[C@H](CCCNC(=N)N)C(=O)N[C@@H](Cc2ccc3ccccc3c2)C(=O)N[C@H](C)C(=O)N1)C(N)=O [[^68Ga]Ga-BL34L16, metal not drawn] (K(X5)Y[Lys(iPr)][dR][2Nal][dA][dE][Lys(iPr)]-NH2; lactam N-7)	50.7

Where do these numbers come from? They come from patent US20250242064A1.
